molecular target: UDP-N-acetylglucosamine 1-carboxyvinyltransferase (Escherichia coli K-12, UniProt P0A749)
Sequence (P0A749 whole entry): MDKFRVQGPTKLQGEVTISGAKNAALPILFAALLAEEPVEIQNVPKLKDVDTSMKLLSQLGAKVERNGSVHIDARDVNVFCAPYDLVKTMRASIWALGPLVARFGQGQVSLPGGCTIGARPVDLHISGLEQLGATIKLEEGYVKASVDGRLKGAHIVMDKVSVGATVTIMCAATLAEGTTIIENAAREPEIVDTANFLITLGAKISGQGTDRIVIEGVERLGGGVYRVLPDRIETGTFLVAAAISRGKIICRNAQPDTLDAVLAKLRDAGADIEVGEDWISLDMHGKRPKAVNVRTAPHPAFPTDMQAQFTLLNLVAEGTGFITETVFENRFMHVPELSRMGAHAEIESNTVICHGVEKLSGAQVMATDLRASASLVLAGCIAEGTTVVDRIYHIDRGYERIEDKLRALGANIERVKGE
Label scheme for IC50: band 1: < 10 µM; band 2: ≥ 10 µM and < 20 µM; band 3: ≥ 20 µM

stdin: Into which bin does this molecule go? COC(=O)C1=C(O)C(=O)N(c2nc3ccc(C)cc3s2)C1c1ccc(-c2ccc(Cl)cc2)o1 (stereo unspecified)
stdout: band 2

stdin: Into which bin does this molecule go? CCOC(=O)C1=C(O)C(=O)N(c2nc3ccc(Oc4ccccc4)cc3s2)C1c1ccccc1 (stereo unspecified)
stdout: band 2

stdin: Into which bin does this molecule go? CCOC(=O)C1=C(O)C(=O)N(c2nc3ccc(C)cc3s2)C1c1ccccc1-c1cccs1 (stereo unspecified)
stdout: band 3

stdin: Into which bin does this molecule go? CCOC(=O)C1=C(O)C(=O)N(c2nc3ccc(Br)cc3s2)C1c1ccc(-c2ccccc2)cc1 (stereo unspecified)
stdout: band 3

stdin: Into which bin does this molecule go? CCOC(=O)C1=C(O)C(=O)N(c2nc3ccc(C)cc3s2)C1c1ccc(-c2ccc(C(F)(F)F)cc2Cl)o1 (stereo unspecified)
stdout: band 1

stdin: Into which bin does this molecule go? CCOC(=O)C1=C(O)C(=O)N(c2nc3ccc(C)cc3s2)C1c1cccc2ccccc12 (stereo unspecified)
stdout: band 2

stdin: Into which bin does this molecule go? `C[C@@H]1O[C@@H]1P(=O)(O)O`
stdout: band 1

stdin: Into which bin does this molecule go? Cc1cccc2sc(N3C(=O)C(O)=C(C(=O)OC(C)(C)C)C3c3ccccc3)nc12 (stereo unspecified)
stdout: band 2

stdin: Into which bin does this molecule go? CCOC(=O)C1=C(O)C(=O)N(c2nc3c(Cl)cccc3s2)C1c1ccc(-c2ccccc2)cc1 (stereo unspecified)
stdout: band 1

---

biological target: UDP-N-acetylglucosamine 1-carboxyvinyltransferase (Escherichia coli K-12); test: Inhibition of wild type his tagged Escherichia coli K12 MurA at 20 uM using UDP-N-acetylglucosamine as substrate preincubated with substrate for 30 mins prior to compound addition for 15 mins followed by DTT and PEP addition and measured after 30 mins by malachite green based microplate reader analysis relative to control; conditions: time 45.0 min
Could you please report measured inhibition for the items listed next?
Kindly answer with a numeric value in %, unit omitted.

stdin: Hello, please tell me recorded inhibition for this one: CCOC(=O)C1=C(O)C(=O)N(c2nc3ccc(C)cc3s2)C1c1ccc2cc(O)ccc2c1 (stereo unspecified)
stdout: 43

stdin: Hello, please tell me recorded inhibition for this one: CCOC(=O)C1=C(O)C(=O)N(c2nc3ccc(C)cc3s2)C1c1ccco1 (stereo unspecified)
stdout: 21

stdin: Hello, please tell me recorded inhibition for this one: CCOC(=O)C1=C(O)C(=O)N(c2ccc(-c3ccccc3)cc2)C1c1ccccc1 (stereo unspecified)
stdout: 19

stdin: Hello, please tell me recorded inhibition for this one: Cc1ccc2nc(N3C(=O)C(O)=C(C(=O)OCCO)C3c3ccc(-c4ccc(Cl)cc4)o3)sc2c1 (stereo unspecified)
stdout: 43

stdin: Hello, please tell me recorded inhibition for this one: CCOC(=O)C1=C(O)C(=O)N(c2nc3ccc(C)cc3s2)C1c1cccs1 (stereo unspecified)
stdout: 14

stdin: Hello, please tell me recorded inhibition for this one: CCOC(=O)C1=C(O)C(=O)N(c2nc3ccc(C)cc3s2)C1c1ccccc1-c1ccccc1 (stereo unspecified)
stdout: 57

stdin: Hello, please tell me recorded inhibition for this one: CCOC(=O)C1=C(O)C(=O)N(c2nc3ccc(Br)cc3s2)C1c1ccc(-c2ccccc2)cc1 (stereo unspecified)
stdout: 52

stdin: Hello, please tell me recorded inhibition for this one: CCOC(=O)C1=C(O)C(=O)N(c2nc3ccc(Oc4ccccc4)cc3s2)C1c1ccccc1 (stereo unspecified)
stdout: 53

stdin: Hello, please tell me recorded inhibition for this one: CCOC(=O)C1=C(O)C(=O)N(c2nc3ccc(C)cc3s2)C1c1ccc(-c2ccc(Cl)nn2)cc1 (stereo unspecified)
stdout: 36

stdin: Hello, please tell me recorded inhibition for this one: CCOC(=O)C1=C(O)C(=O)N(c2nc3c(ccc4ccccc43)s2)C1c1ccccc1 (stereo unspecified)
stdout: 36

stdin: Hello, please tell me recorded inhibition for this one: CCOC(=O)C1=C(O)C(=O)N(c2nc3c(Cl)cccc3s2)C1c1ccccc1 (stereo unspecified)
stdout: 18

---

target: UDP-N-acetylglucosamine 1-carboxyvinyltransferase (Escherichia coli K-12) (UniProt P0A749); assay: Inhibition of wild type his tagged Escherichia coli K12 MurA at 20 uM using UDP-N-acetylglucosamine as substrate preincubated with substrate for 30 mins prior to compound addition for 15 mins followed by DTT and PEP addition and measured after 30 mins by malachite green based microplate reader analysis relative to control; details: time 45.0 min
Sequence (P0A749 whole entry): as above
Label scheme for inhibition: lower than 40% is label 0, 40% and above is label 1.

stdin: Assess whether reported inhibition for CCOC(=O)C1=C(O)C(=O)N(c2nc3ccc(C)cc3s2)C1c1ccccc1-c1cccs1 (stereo not given) sits at 40% or higher.
stdout: label 1

stdin: Assess whether reported inhibition for Cc1ccc2nc(N3C(=O)C(O)=C(C(=O)OC(C)(C)C)C3c3ccccc3)sc2c1 (stereo not given) sits at 40% or higher.
stdout: label 0

stdin: Assess whether reported inhibition for C[C@@H]1O[C@@H]1P(=O)(O)O [FOSFOMYCIN] sits at 40% or higher.
stdout: label 1

stdin: Assess whether reported inhibition for CCOC(=O)C1=C(O)C(=O)N(c2nc3ccc(Cl)cc3s2)C1c1ccc(-c2ccccc2)cc1 (stereo not given) sits at 40% or higher.
stdout: label 1

stdin: Assess whether reported inhibition for CCOC(=O)C1=C(O)C(=O)N(c2nc3ccccc3s2)C1c1ccc(-c2ccccc2)cc1 (stereo not given) sits at 40% or higher.
stdout: label 1

stdin: Assess whether reported inhibition for CC(C)(C)OC(=O)C1=C(O)C(=O)N(c2nc3ccc(Cl)cc3s2)C1c1ccccc1 (stereo not given) sits at 40% or higher.
stdout: label 0

stdin: Assess whether reported inhibition for CCOC(=O)C1=C(O)C(=O)N(c2ccccc2)C1c1ccc(-c2ccccc2)cc1 (stereo not given) sits at 40% or higher.
stdout: label 0

stdin: Assess whether reported inhibition for CCOC(=O)C1=C(O)C(=O)N(c2ccc(Cl)cc2)C1c1ccc(Cl)cc1 (stereo not given) sits at 40% or higher.
stdout: label 0

stdin: Assess whether reported inhibition for CCOC(=O)C1=C(O)C(=O)N(c2nc3ccccc3s2)C1c1ccccc1 (stereo not given) sits at 40% or higher.
stdout: label 0

stdin: Assess whether reported inhibition for Cc1cccc2sc(N3C(=O)C(O)=C(C(=O)OC(C)(C)C)C3c3ccccc3)nc12 (stereo not given) sits at 40% or higher.
stdout: label 1

---

Could you please report measured pIC50 for the items listed next?
Value format note: pIC50 is -log10 of concentration (mol/L); just state the number.

stdin: Give measured pIC50 for CCOC(=O)C1=C(O)C(=O)N(c2nc3ccc(C)cc3s2)C1c1ccccc1-c1ccccc1 (centres undefined) (UniProt P0A749).
stdout: 4.77

stdin: Give measured pIC50 for CCOC(=O)C1=C(O)C(=O)N(c2nc3ccc(Cl)cc3s2)C1c1ccc(-c2ccccc2)cc1 (centres undefined) (UniProt P0A749).
stdout: 5.29

stdin: Give measured pIC50 for CCOC(=O)C1=C(O)C(=O)N(c2nc3ccc(C)cc3s2)C1c1ccc(-c2ccccc2)cc1 (centres undefined) (UniProt P0A749).
stdout: 5.07

stdin: Give measured pIC50 for CCOC(=O)C1=C(O)C(=O)N(c2nc3ccc(C(F)(F)F)cc3s2)C1c1ccc(-c2ccccc2)cc1 (centres undefined) (UniProt P0A749).
stdout: 5.21

stdin: Give measured pIC50 for CCOC(=O)C1=C(O)C(=O)N(c2nc3ccc(OC)cc3s2)C1c1ccc(-c2ccccc2)cc1 (centres undefined) (UniProt P0A749).
stdout: 4.66

stdin: Give measured pIC50 for CCOC(=O)C1=C(O)C(=O)N(c2nc3c(OC)cccc3s2)C1c1ccc(-c2ccccc2)cc1 (centres undefined) (UniProt P0A749).
stdout: 4.60

stdin: Give measured pIC50 for CCOC(=O)C1=C(O)C(=O)N(c2nc3c(F)cc(F)cc3s2)C1c1ccc(-c2ccccc2)cc1 (centres undefined) (UniProt P0A749).
stdout: 5.12

stdin: Give measured pIC50 for CCOC(=O)C1=C(O)C(=O)N(c2nc3cc(C)c(C)cc3s2)C1c1ccc(-c2ccccc2)cc1 (centres undefined) (UniProt P0A749).
stdout: 5.24

stdin: Give measured pIC50 for CCOC(=O)C1=C(O)C(=O)N(c2nc3ccc(C)cc3s2)C1c1ccc(OC)c2ccccc12 (centres undefined) (UniProt P0A749).
stdout: 5.02

---

test: Stability in human plasma assessed as degradation at measured after 4 hrs by HPLC-MS analysis; format: ADME, cell-free; conditions: read-out: Drug degradation
OBSERVABLE: metabolised at 4 h
Dear colleague, please send the value followed by its unit.

stdin: Hello, please tell me recorded metabolised at 4 h for this one: `CCCCNc1ccc(C(=O)OCCN(C)C)cc1`
stdout: 100%

---

assay: Stability in human S9 fractions assessed as degradation at measured after 2 hrs by HPLC-MS analysis; type: ADME, subcellular, Liver, S9 fraction; conditions: read-out: Drug degradation
OBSERVABLE: metabolised at 2 h

stdin: Hello, please tell me recorded metabolised at 2 h for this one: `C[C@]12CC[C@H]3[C@@H](CCC4=CC(=O)CC[C@@]43C)[C@@H]1CC[C@@H]2O`
stdout: 89%
